Values were extracted from patent EP0004835A1.

I'd be grateful if you could share measured Tremorogenic effect in relation to the tremorogenic effect of terbutaline for these entries.
Test system: electrically induced contractions of the soleus muscle
protocolText: Tremorogenic effect in anaesthetized cat (soleus muscle, simultaneous recording)
Format: in vivo
appliedConditions: narcotized cat, i.v.; based on molar dose giving 30 % decrease of electrically induced soleus contractions; terbutaline = 1
Protocol: A. Simultaneous recording of bronchospasmolytic effect, tremorogenic effect and heart stimulating effect The bronchospasmolytic effect and the tremorogenic effect were measured simultaneously in anaesthetized cat. The method used is described in detail by 0 A T Olsson, Acta pharmacol et toxicol 34, 106-114 (1974). […] The bronchospasmolytic effect is measured as the dose, calculated in moles per kg bodyweight of the test animal, which gives 30 % decrease of the histamine induced bronchospasm. […]
Counter-ions that a name gives are not always drawn.
Kindly provide the number alone.

Identify the measured Tremorogenic effect in relation to the tremorogenic effect of terbutaline of COc1ccccc1CC(C)(C)NCC(O)c1ccc(O)cc1 (centres unmarked) for electrically induced contractions of the soleus muscle.
0.011

Another molecule: COc1ccccc1CCC(C)(C)NCC(O)c1ccc(OC(=O)C(C)(C)C)cc1 (centres unmarked)
0.23

Another molecule: CCOc1ccccc1CCC(C)(C)NCC(O)c1ccc(O)cc1 (centres unmarked) [D 2388, hydrochloride]
0.8

Another molecule: COc1ccccc1CCC(C)(C)NCC(O)c1ccc(OC(=O)c2ccc(C)cc2)cc1 (centres unmarked)
0.18

Another molecule: CC(C)(C)NCC(O)c1cc(O)cc(O)c1 (centres unmarked) [Terbutaline, terbutaline, reference compound]
1

* * *

System: heart frequency
protocolText: Heart stimulating effect in anaesthetized cat (simultaneous recording)
Format: in vivo
appliedConditions: cat, in vivo, iv
Counter-ions that a name gives are not always drawn.
endpoint: Heart stimulating effect in relation to the heart stimulating effect of terbutaline
Kindly provide the number alone.

I am curious: what Heart stimulating effect in relation to the heart stimulating effect of terbutaline value has been reported for CC(C)(C)NCC(O)c1cc(O)cc(O)c1 (stereo not shown) [Terbutaline, terbutaline, reference compound] ?
1

Another compound: CCOc1ccccc1CCC(C)(C)NCC(O)c1ccc(O)cc1 (stereo not shown) [D 2388, hydrochloride]
1

Another compound: COc1ccccc1CCC(C)(C)NCC(O)c1ccc(OC(=O)C(C)(C)C)cc1 (stereo not shown)
0.16

Another compound: COc1ccccc1CCC(C)(C)NCC(O)c1ccc(OC(=O)c2ccc(C)cc2)cc1 (stereo not shown)
0.26

* * *

I'd be grateful if you could share measured Bronchospasmolytic effect in relation to the bronchospasmolytic effect of terbutaline for these entries.
System: histamine induced bronchospasm
protocolText: Bronchospasmolytic effect in anaesthetized cat (simultaneous recording)
Type: in vivo
appliedConditions: narcotized cat, i.v. (brachial vein); based on molar dose giving 30 % decrease of histamine induced bronchospasm; terbutaline = 1
Where a name gives a salt, the structure may show the parent alone.

I am curious: what Bronchospasmolytic effect in relation to the bronchospasmolytic effect of terbutaline value has been reported for COc1ccccc1CCC(C)(C)NCC(O)c1ccc(OC(=O)C(C)(C)C)cc1 (centres unmarked) ?
0.28±0.07

Another compound: COc1ccccc1CC(C)(C)NCC(O)c1ccc(O)cc1 (centres unmarked)
0.12±0.03

Another compound: CCOc1ccccc1CCC(C)(C)NCC(O)c1ccc(O)cc1 (centres unmarked) [D 2388, hydrochloride]
1.4±0.2

Another compound: CC(C)(C)NCC(O)c1cc(O)cc(O)c1 (centres unmarked) [Terbutaline, terbutaline, reference compound]
1

Another compound: COc1ccccc1CCC(C)(C)NCC(O)c1ccc(OC(=O)c2ccc(C)cc2)cc1 (centres unmarked)
0.25±0.05
